From: patent US7879884B2

Test system: HCT 116 cells
Test: CellTiter-Glo Luminescent Cell Viability Assay in HCT 116 cells
Format: cell-based
Settings: HCT 116 human colon carcinoma cells, 5 days (120 h) incubation, CellTiter-Glo luminescence, triplicate
Description: CellTiter-Glo™ Assay in HCT 116 Cells The CellTiter-Glo™ Luminescent Cell Viability Assay (Promega) is a homogeneous method of determining the number of viable cells in culture based on quantitation of the ATP present, which signals the presence of metabolically active cells. […] For the assay the cells were seeded in 384 well plates, 1000 cells per well, in the same medium. […] After 45 minutes the luminescent signal was measured in Victor 2, (scanning multiwell spectrophotometer, Wallac). […]
quantityName: IC50

linenotation=COc1cc(Cl)ccc1C(=O)NS(=O)(=O)c1ccc(-c2c(OC)cccc2OC)nc1 reported="500 to 7500 nM"
linenotation=COc1cc(Cl)ccc1C(=O)NS(=O)(=O)c1ccc(-c2c(C)cccc2C)nc1 reported="500 to 7500 nM"
linenotation=COc1cc(Cl)ccc1C(=O)NS(=O)(=O)c1ccc(-c2c(C)cc(C)cc2C)nc1 reported="500 to 7500 nM"
linenotation=COc1cccc(OC)c1-c1ccc(S(=O)(=O)NC(=O)c2ccc(Cl)cc2Cl)cn1 reported="1430 nM"

---

system: HCT 116 cells; test: CellTiter-Glo Luminescent Cell Viability Assay in HCT 116 cells; assay type: cell-based; settings: HCT 116 human colon carcinoma cells, 5 days (120 h) incubation, CellTiter-Glo luminescence, triplicate
quantityName: IC50

molecule="O=C(NS(=O)(=O)c1ccc(-c2ccc(C(F)(F)F)cc2C(F)(F)F)nc1)c1ccc(Cl)cc1Cl [Example 1-9]" reported="0.5 to 7.5 µM"
molecule="Cc1cc(S(=O)(=O)NC(=O)c2ccc(F)cc2C(F)(F)F)cnc1-c1ccccc1Cl [Example 1-14]" reported="0.5 to 7.5 µM"
molecule="COc1cc(Cl)ccc1C(=O)NS(=O)(=O)c1cnc(-c2ccccc2Cl)c(C)c1 [Example 1-16]" reported="0.5 to 7.5 µM"
molecule="COc1cccc(OC)c1-c1ccc(S(=O)(=O)NC(=O)c2ccc(F)cc2C(F)(F)F)cn1 [Example 1-3]" reported="0.5 to 7.5 µM"
molecule="COc1ccccc1-c1ncc(S(=O)(=O)NC(=O)c2ccc(Cl)cc2Cl)cc1C [Example 1-12]" reported="3.98 µM"
molecule="COc1ccccc1-c1ncc(S(=O)(=O)NC(=O)c2ccc(F)cc2C(F)(F)F)cc1C [Example 1-13]" reported="0.5 to 7.5 µM"
molecule="COc1cc(Cl)ccc1C(=O)NS(=O)(=O)c1ccc(-c2ccccc2NS(C)(=O)=O)nc1 [Example 1-11]" reported="0.5 to 7.5 µM"
molecule="COc1cccc(OC)c1-c1ccc(S(=O)(=O)NC(=O)c2ccc(F)cc2Cl)cn1 [Example 1-2]" reported="0.5 to 7.5 µM"

---

Test system: HCT 116 cells
Test: CellTiter-Glo Luminescent Cell Viability Assay in HCT 116 cells
Type: cell-based
Details: HCT 116 human colon carcinoma cells, 5 days (120 h) incubation, CellTiter-Glo luminescence, triplicate
Experimental: CellTiter-Glo™ Assay in HCT 116 Cells The CellTiter-Glo™ Luminescent Cell Viability Assay (Promega) is a homogeneous method of determining the number of viable cells in culture based on quantitation of the ATP present, which signals the presence of metabolically active cells. […] For the assay the cells were seeded in 384 well plates, 1000 cells per well, in the same medium. […] After 45 minutes the luminescent signal was measured in Victor 2, (scanning multiwell spectrophotometer, Wallac). […]
The following compounds are shown together with reported IC50 values.
quantityName: IC50

compound="CS(=O)(=O)c1ccccc1-c1ccc(S(=O)(=O)NC(=O)c2ccc(Cl)cc2Cl)cn1 [Example 1-8]" reported="2.94 µM"
compound="Cc1cc(S(=O)(=O)NC(=O)c2ccc(F)cc2Cl)cnc1-c1ccccc1Cl [Example 1-15]" reported="0.5 to 7.5 µM"
compound="CSc1ccccc1-c1ccc(S(=O)(=O)NC(=O)c2ccc(Cl)cc2Cl)cn1 [Example 1-7]" reported="0.5 to 7.5 µM"
compound="COc1cccc(F)c1-c1ccc(S(=O)(=O)NC(=O)c2ccc(Cl)cc2Cl)cn1 [Example 1-10]" reported="0.5 to 7.5 µM"
